testedOn: β5c subunit of isolated human 20S proteasome (Homo sapiens, UniProt P28074)
assaySummary: Proteasome inhibition assay (20 S Proteasome Assay Kit, Suc‐LLVY‐AMC)
testParameters: purified proteasome
observable: pIC50
On this scale, pIC50 is minus log10 of a concentration expressed in M (mol/L).

pIC50 measured on CC(C)C[C@H](NC(=O)OCc1ccccc1)C(=O)N[C@@H](CC(C)C)C(=O)N[C@@H](CC(C)C)C(=O)C(=O)Nc1cccc(Oc2ccccc2)c1 = 7.18

Reported pIC50 ( Cc1ccc(NC(=O)C(=O)C(CC(C)C)NC(=O)C(CC(C)C)NC(=O)C(CC(C)C)NC(=O)OCc2ccccc2)c(C)c1 (stereo not drawn) ) = 7.32

// recorded pIC50 for Cc1cc(C)c(Oc2ccccc2)cc1NC(=O)C(=O)[C@H](CC(C)C)NC(=O)[C@H](CC(C)C)NC(=O)[C@H](CC(C)C)NC(=O)c1cc(Cl)ccc1Cl : 7.64

----------
System: THP‐1 cells
assaySummary: Cell viability endpoint assay (Celltiter Blue, 72 h)
Assay type: cell-based
testParameters: Homo sapiens, mean±SD from two independent experiments
observable: IC50 (nM)
Your answer is read as nM, so omit the unit and give the number.

Param item: Cc1ccc(NC(=O)C(=O)C(CC(C)C)NC(=O)C(CC(C)C)NC(=O)C(CC(C)C)NC(=O)OCc2ccccc2)c(C)c1 (stereo not shown) [Compound 7, BSc4999] ; param system: THP‐1 cells; output IC50: 24

THP‐1 cells assay, compound CC(C)C[C@H](NC(=O)[C@H](CCc1ccccc1)NC(=O)CN1CCOCC1)C(=O)N[C@@H](Cc1ccccc1)C(=O)N[C@@H](CC(C)C)C(=O)[C@@]1(C)CO1 [Carfilzomib 3, Carfilzomib] , recorded IC50 = 135

# IC50 measured on THP‐1 cells for item Cc1cc(C)c(Oc2ccccc2)cc1NC(=O)C(=O)[C@H](CC(C)C)NC(=O)[C@H](CC(C)C)NC(=O)[C@H](CC(C)C)NC(=O)c1cc(Cl)ccc1Cl [Compound 27] = 66

Known value: THP‐1 cells IC50 of the compound CC(C)C[C@H](NC(=O)OCc1ccccc1)C(=O)N[C@@H](CC(C)C)C(=O)N[C@@H](CC(C)C)C(=O)C(=O)Nc1cccc(Oc2ccccc2)c1 [Compound 9] equals 30

----------
Could you please report measured inhibition at 1 µM for the items listed next?
testedOn: β5i subunit of isolated human 20S proteasome (Homo sapiens)
Construct: purchased Enzo Life Sciences
assaySummary: Proteasome inhibition assay (20 S Proteasome Assay Kit, Suc‐LLVY‐AMC)
Type: biochemical
testParameters: c = 1 µM, n=1; read-out: Inhibition iCP β5
Procedure: Proteasome inhibition assay. […] The 20 S Proteasome Assay Kit for Drug Discovery was used according to the supplier's protocol using Suc‐LLVY‐AMC (β5), Bz‐VGR‐AMC (β2) or Z‐LLE‐AMC (β1) as substrates (Enzo Life Sciences). […] After 30 min incubation, substrate was added (cfinal=100 μM), incubated for 60 minutes and fluorescence was read using a Tecan M1000 microplate reader. […] IC50 values were determined from technical duplicates as mean value of three independent experiments.
Report as a plain number; the unit % is understood.

Reported inhibition at 1 µM for CC(C)C[C@@H](C=O)NC(=O)[C@H](CC(C)C)NC(=O)[C@H](CC(C)C)NC(=O)Cn1cnc2ccccc2c1=O was 28

Recorded inhibition at 1 µM (molecule Cc1cc(C)c(Oc2ccccc2)cc1NC(=O)C(=O)[C@H](CC(C)C)NC(=O)[C@H](CC(C)C)NC(=O)[C@H](CC(C)C)NC(=O)c1cc(Cl)ccc1Cl ): 68

Field inhibition at 1 µM (entry Cc1cc(C)c(Oc2ccccc2)cc1NC(=O)C(=O)[C@H](CC(C)C)NC(=O)[C@H](CC(C)C)NC(=O)[C@H](CC(C)C)NC(=O)OCc1ccccc1 ) reads 10

For reference, reported inhibition at 1 µM for CC(C)C[C@H](NC(=O)OCc1ccccc1)C(=O)N[C@@H](CC(C)C)C(=O)N[C@@H](CC(C)C)C(=O)C(=O)Nc1ccc(Oc2ccccc2)cc1 stands at 23

Entry under test: Cc1ccc(NC(=O)C(=O)[C@H](CC(C)C)NC(=O)[C@H](CC(C)C)NC(=O)[C@H](CC(C)C)NC(=O)c2cc(Cl)ccc2Cl)c(C)c1 . Its inhibition at 1 µM was 24

Kindly note the recorded inhibition at 1 µM for Cc1ccc(Oc2ccccc2)cc1NC(=O)C(=O)[C@H](CC(C)C)NC(=O)[C@H](CC(C)C)NC(=O)[C@H](CC(C)C)NC(=O)OCc1ccccc1 , which is 48
